Source of measurements: patent US10428044B2

Listed next: entries and their corresponding IC50.
- STUDY SYSTEM: (recombinant) catalytic domain of human Bub1 (amino acids 704-1085) (Homo sapiens (Human))
- Sequence (O43683 704-1085): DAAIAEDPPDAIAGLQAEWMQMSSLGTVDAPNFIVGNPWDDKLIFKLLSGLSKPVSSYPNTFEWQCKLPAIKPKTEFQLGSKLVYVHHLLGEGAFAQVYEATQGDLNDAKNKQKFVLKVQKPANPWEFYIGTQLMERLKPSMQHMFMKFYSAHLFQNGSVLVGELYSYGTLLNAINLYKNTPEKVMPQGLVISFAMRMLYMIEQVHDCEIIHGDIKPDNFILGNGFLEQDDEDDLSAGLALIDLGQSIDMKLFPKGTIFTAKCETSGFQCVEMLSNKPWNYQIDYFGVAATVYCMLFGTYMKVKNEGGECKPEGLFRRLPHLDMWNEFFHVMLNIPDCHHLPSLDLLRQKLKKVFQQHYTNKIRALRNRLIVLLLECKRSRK
- PROTOCOL TEXT: Bub1 kinase assay (TR-FRET)
- ASSAY CONDITIONS: ATP 10 μM final, peptide substrate 1 μM final, 60 min at 22° C., read-out: Biological Assay: Bub1 kinase assay median IC50
Report the figure in nM without appending any unit label.

Reference set, count: 3
CC1(C)CC(=O)c2c([nH]c(-c3ccncc3)c2Nc2ccccc2C(N)=O)C1 [Example 429]
70.9
Cn1nccc1CC(=O)Nc1cc(-c2[nH]c3c(c2Nc2ccccc2)C(=O)CCC3)ccn1 [Example 292]
340
CC1(C(=O)Nc2cc(-c3[nH]c4c(c3Nc3ccccc3)C(=O)CCC4)ccn2)CC1 [Example 228]
56.7

-- ask Specify IC50 for CC1(C)CC(=O)c2c([nH]c(-c3ccnc(NC(=O)C(F)F)c3)c2Nc2ccccc2)C1 [Example 166] and stop.
-- reply 1690

-- ask Consider the compound O=C1CCCc2[nH]c(-c3ccnc(N(C(=O)C4CC4)C(=O)C4CC4)c3)c(Nc3ccccc3)c21 [Example 163] and give its recorded IC50.
-- reply 126

-- ask Read the entry O=C1CCCc2[nH]c(-c3ccnc(NCC4CC4)c3)c(Nc3ccccc3)c21 [Example 368] and write its reported IC50.
-- reply 622

-- ask Find the measured IC50 of CC(=O)Nc1cc(-c2[nH]c3c(c2Nc2ccccc2)C(=O)CC(C)(C)C3)ncn1 [Example 357] and report it.
-- reply 3080

-- ask Determine its reported IC50: O=C(Cc1nccs1)Nc1cc(-c2[nH]c3c(c2Nc2ccccc2)C(=O)CCC3)ccn1 [Example 285]
-- reply 30.8
